Provide the recorded growth inhibition for the entries that follow.
- protocol summary: NCI Yeast Anticancer Drug Screen. Data for the mlh1 rad18 strain (AID 175)
- condition set: S. cerevisiae mlh1 rad18 strain growth inhibition; at 50.0 µM; hits give high values
This is part of a sample that, as a whole, favours compounds with a hit. Of some 79,000 tested, about 15% had one in any assay.
Supply the numeric figure in %, leaving out any unit text.

Req: Which growth inhibition value is on record for CC1(C)CC(=O)C(/C=N/C(=S)NC2CCCCC2)=C(O)C1 ?
Resp: -8

Req: Quick one: growth inhibition for C=CCC12CC(COc3ccccc3C(N)=O)OC1=Nc1ccccc1NC2=O (centres undefined) ?
Resp: -5.05

Req: # input molecule: CC(C)CN(CC(=O)Nc1cccc(Cl)c1)CC(C)C ; wanted: its growth inhibition
Resp: 2.1

Req: Quick one: growth inhibition for CCC/C(Cl)=N/OC(=O)Nc1cc(C(F)(F)F)ccc1OC ?
Resp: 21.3
